Ref: ChEMBL document CHEMBL1157539

# Test system: Plasmodium falciparum
# run-description: GSK_TCMDC: Inhibition of Plasmodium falciparum Dd2 in whole red blood cells, using parasite LDH activity as an index of growth. Test compounds present at 2uM
# Type: functional
measured-metric: Inhibition
Returns: string containing the numeric result and its unit.

O=C(Cn1c(CCc2cccc(F)c2F)nc(=O)c2ccccc21)N(CCN1CCCCC1)Cc1ccc(-c2ccc(C(F)(F)F)cc2)cc1.O=C(O)C(O)C(O)C(=O)O
89%
CCc1ccc(NC(=O)c2ccc(CN3CCCN(Cc4cccs4)CC3)cc2)cc1.O=C(O)C(F)(F)F
0%
COc1cccc(OCC2CCCN(CCCCNC(=O)c3ccc(NC(=O)c4ccc(Cl)cc4)cc3)C2)c1 (centres undefined)
49%

Here's the next entry for you.
Dear colleague, please send me the reported Inhibition for `Nc1nc(N)c2c(ccc3ccccc32)n1` when you can.
20%
